- METHOD: soluble fraction after stress (log2 fold change); higher = more stays soluble; pooled small domains, quantitative proteomics
- RUN_CONDITIONS: stress: pH 4
MEASUREMENT_TYPE: soluble fraction (log2)
Reply with the value as a number alone.

> print(dat)
                                   residues  experimental.value
1  HMIPTDPNGDLIKILYTSDQINELYARAKLNDVEDLFLDWTKNVLGESNFEETGPTKNEYLIPQ              -0.961

### Prompt I have this sequence here, `HMLSDSDTLRDLYLSEQIWNVGDLIRVKGKNDDTHPSWEIIRRGTNYITAIDENYKSHKVWLHDIDI` , and I need its recorded soluble fraction (log2).
### Response -1.4

### Prompt Value lookup for soluble fraction (log2); key = `HMVEFLMESTNGMYGIVKEGSSYYVQKGINESSLDYIGGMFMKDKNRFSSYSTALKRLELISGQET`
### Response -0.497

### Prompt Return reported soluble fraction (log2); argument: `HMEILVSTRRHEIASLLSRKKRVSFFELFPEKTKEYVVATFLAILEMAKAREVNITQEDTFDEIIVEEA`
### Response -1.09

### Prompt So what does the record say about soluble fraction (log2) for `HMAHKYYSIMRPVSIGTFPDNGTILGIVNFDTRQMVESIGKMAWGYINYGKPLTEKQISDYELVAE` ?
### Response 0.361

### Prompt Fill in: soluble fraction (log2) of `HMGKMTSTLGVHIAAYRKEHGETVAQFASRSGVSVSSIRRIESGISDPSADLVWKISRHMGMTMDDLFKKM` is ___
### Response -0.0972

### Prompt Look up soluble fraction (log2) for this sequence: `HMIGIEALAGEIDRVRQVLTGGGGLSDVQLFSQLKALNEIKAALGASPDPRAPELVQRVDQLLEAAFRS`
### Response -1.1

### Prompt Which value of soluble fraction (log2) has been reported for `HMDSLSLTELRIDSASPWIGNRISDFSPYAGELVIMIIRGEETIVPNGDTIILDKDLLVIYSS` in the records?
### Response -1.39

### Prompt # query: soluble fraction (log2) of entry `HMDDFTEVLLQYLKDHDGYSSIHDKTDAETIYNTFGVSKKTFKKAVGDLYKKRLIVLEEEGIRLLG`
### Response -0.586

### Prompt Entry under review: `HMKIKKIWFDGDYIYGMDERNNTYRQSLLWYSKLRNASAEERERYTFSTIGIHWRELDEDVSFESF` . Reported soluble fraction (log2)?
### Response -1.78

### Prompt What soluble fraction (log2) value was documented for this sequence, `HMETADREILLREIREIINERVDYNKDITDDEMKELVMNTVFERSRQQYMSIQDKQEIIQAIFNSMR` ?
### Response -1.02

###

Item-by-item account of soluble fraction (log2)
- METHOD: soluble fraction after stress (log2 fold change); higher = more stays soluble; pooled small domains, quantitative proteomics
- RUN_CONDITIONS: stress: pH 4
No unit in the answer, please; the number alone is enough.

Please review the following examples before continuing.
> print(dat)
                                   residues         measurement.type  experimental.value
1  HMGEAAIYRINILINNLNVRSGPGTLYPRLRRADFPGEYDIFEEKNGFGRISNTKSEWVSLNTQYVQRLT  soluble fraction (log2)               0.158
2  HMQPETIEDATNLYLEAARATLQLIEQNNVIARDVKRLLEHLDNDMARIETLLAEMLSRRDHWLRHIH  soluble fraction (log2)               0.185
3  HMYITGAVIRKLREKNNITQLQLAERLRVSDKTISKWETGKGYPDITLLEPIAKTFSVSVTELISGDI  soluble fraction (log2)               -0.84

### Prompt May I ask what soluble fraction (log2) has been recorded for `HMENVALYIRLKSMASVYDDVHGYNIEWIKSMIGLSIDIEKLRTVLEDVSWITKVEEDVYSFSKNAKPFE` ?
### Response -2.32

### Prompt For the sequence `HMRDPVDKDNYLGDWDKNKTYPAGYVMTFGDKNYLALQEVPAGTKPGATDPDPFWVLDTGKTLKD` , what soluble fraction (log2) is on record?
### Response 0.163

### Prompt Consider the sequence shown here: `HMASAAHYEGVKTEGESDNDVITRVLTATGVTAEKDDIFVVKSLIADGKYSYTAYVYDGSVWAAMD` What is its recorded soluble fraction (log2)?
### Response -0.541

### Prompt Fill blank: measured soluble fraction (log2) of the sequence `HMNPETLTNSSVIKMSKANLSDELITDMILNSPVKFDLSAGAIKTLESEGVTPAVLESMKNAASK` is ____.
### Response 0.0677

### Prompt Give the measured soluble fraction (log2) of `HMNEIEIHINKLFGKISDSKRKQELMQEITQNLNEKVSDLVSQGQTREQAVKKAIEDFGDIDDLKDELDN` .
### Response -0.0968

### Prompt I am curious: what soluble fraction (log2) value has been reported for `HMNKPTFNIFNNRLTFPFKGDITIYSLDGKRVFSAYNESSVNLSFLNRGSYISEFNNSRSVLIL` ?
### Response -0.948

###

- METHOD: soluble fraction after stress (log2 fold change); higher = more stays soluble; pooled small domains, quantitative proteomics
- RUN_CONDITIONS: stress: pH 4
Tag: TRUE if measured soluble fraction (log2) is not below -0.2, FALSE if it is.

Worked cases, answers included:
> print(dat)
                                   residues  assigned.label
1  HMGDGAWQQGEGGRWWYKYNNGTYPKDRVVTIGGKKYGFDSEGWMLSDTTKAFGGTTYSFAADGVATAQA           FALSE
2  HMKYNYEAQQSDELSLVKGSRIHVLEKSSDGWWKGEIDNVVGWFPS            TRUE
3  HMGGKYKGVIIGHLIDKTLRYNELQKLISHATPKMLIQQLKELEADGIIQRKLYPVVPPKTEYSLTERG            TRUE
4  HMVPTATVGENTSTLPVRQLPGGPVLVVLVRGDIVLPLPGHAFQNGDVWREISTVNGVIGWVPDEFLDY           FALSE
5  HMKGTLPEMITSREEVVLKFMVNGWDAKRIASELDISVLTVRKHIANIYEKLHVQSKAEIISMAHQQKWFN           FALSE
6  HMWPQIAGFADRFGLSDTERRIVTLMSHGRSRKIIASTLGYSQNTIRNYTRNIYAKAGVHSKQELLDLLDP            TRUE

### Prompt Hi, just wondering whether `HMFTLNEIIGQKIRNARISAGLTLDELSKMTGISAAQLSSLETGYRRANIDTLYAIAKAIGIDVSNLLKY` shows soluble fraction (log2) of -0.2 or higher.
### Response FALSE

### Prompt Hi, just wondering whether `HMPVFYVTGNRVNFRAGPSTGDRVIGSLSQGAAVEVLGPTDDAWINIRDSDGRVGYMSAQFLSQ` shows soluble fraction (log2) of -0.2 or higher.
### Response FALSE

### Prompt Could you verify whether the entry `HMTTMNSADLIKELEKAGWTLRGVKGSHHIYTHPARGGHLSVPHPKKDLGAGLARQLRKQAGL` shows soluble fraction (log2) of no less than -0.2?
### Response TRUE

### Prompt Say whether `HMGIAKLLTEQEYKIALLAAERRTNAMIAEEMNLTENTVKTHLKHIFDKVGIAGNAKNKRHLLADMMNSER` shows soluble fraction (log2) of -0.2 or more.
### Response TRUE

### Prompt In plain terms: is recorded soluble fraction (log2) at least -0.2 for `HMTFNLDVDGDDQVTALGDGLMIIRKLFGATFAGDALTNKAISPDATRTTDEIHAYIEKGITSGVLD` ?
### Response FALSE

### Prompt Reported soluble fraction (log2) reaches at least -0.2 for `HMAVSSHAVKQRIRSLIQAEDPAAPLSDEALRLALSALGVDVSRRVIAKYRAELNIPSSSQRKK` ?
### Response TRUE

### Prompt Evaluate `HMQKPDIEVDFAEGDMVVVTGGAWKDTAGVITGINMQKQTVTINVELFGRETPVEISFTEIKKA` : soluble fraction (log2) at minimum -0.2?
### Response FALSE

### Prompt Answer whether soluble fraction (log2) of `HMKSATGKIPDFISDLPVDEFVRELIVTNAFQPLNKFKEVQNHIGSALKIYVDELTEKRANGTVHILYSHK` is greater than or equal to -0.2.
### Response FALSE

### Prompt Test whether the sequence `HMSDTLPRLLWNFQMAKRLDEMNGAEKRRYQLVLIHPQASEKERDYASSFAHQARMLGIEVAIRDS` records soluble fraction (log2) of -0.2 or higher.
### Response TRUE

### Prompt Is the recorded value of soluble fraction (log2) equal to or greater than -0.2 for this sequence? `HMAPDDTAVWSAFIGWFRTAPDGPNPLGAYAAKLGEEGLDAAEVGRRMTVIVRLFAEKPEGAEVFYDRTYA`
### Response FALSE
